targetOrTestSystem: Bromodomain-containing protein 1 (Homo sapiens)
Sequence (O95696 whole entry): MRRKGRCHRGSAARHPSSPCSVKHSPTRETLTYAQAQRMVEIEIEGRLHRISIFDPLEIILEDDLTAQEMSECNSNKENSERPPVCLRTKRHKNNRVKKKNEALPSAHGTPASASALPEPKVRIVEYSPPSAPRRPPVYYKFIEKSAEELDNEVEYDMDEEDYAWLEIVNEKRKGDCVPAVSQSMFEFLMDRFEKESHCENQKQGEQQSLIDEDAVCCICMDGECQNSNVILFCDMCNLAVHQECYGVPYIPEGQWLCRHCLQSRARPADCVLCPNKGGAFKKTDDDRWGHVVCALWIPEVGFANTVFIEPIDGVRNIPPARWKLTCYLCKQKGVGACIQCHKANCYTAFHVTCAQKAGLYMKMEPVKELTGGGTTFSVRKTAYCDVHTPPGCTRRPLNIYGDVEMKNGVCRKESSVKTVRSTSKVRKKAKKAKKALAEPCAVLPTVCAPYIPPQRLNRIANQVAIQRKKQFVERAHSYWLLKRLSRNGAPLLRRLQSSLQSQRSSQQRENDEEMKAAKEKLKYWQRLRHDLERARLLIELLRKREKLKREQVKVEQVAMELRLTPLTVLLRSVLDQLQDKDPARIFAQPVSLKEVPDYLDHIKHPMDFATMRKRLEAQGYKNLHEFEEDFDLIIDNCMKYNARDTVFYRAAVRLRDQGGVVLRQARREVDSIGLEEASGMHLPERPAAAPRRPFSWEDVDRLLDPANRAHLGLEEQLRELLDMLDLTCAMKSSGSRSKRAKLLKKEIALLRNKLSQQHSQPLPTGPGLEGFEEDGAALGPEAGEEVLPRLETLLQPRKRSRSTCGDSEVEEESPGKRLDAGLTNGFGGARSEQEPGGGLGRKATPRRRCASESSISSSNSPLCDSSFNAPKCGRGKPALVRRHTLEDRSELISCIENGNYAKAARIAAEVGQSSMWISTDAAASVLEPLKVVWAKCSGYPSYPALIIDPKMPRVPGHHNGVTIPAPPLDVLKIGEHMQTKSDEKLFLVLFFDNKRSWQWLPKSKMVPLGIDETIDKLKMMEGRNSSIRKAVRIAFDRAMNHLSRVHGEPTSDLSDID
experimentalProtocol: Binding affinity to human partial length BRD1 (E556 to A688 residues) expressed in bacterial expression system by BROMOscan assay
pKd: −log10 of the molar value.
endpointName: pKd

>>> print(df.to_string())
                            smilesstructure  readoutvalue
0  C[C@H]1CCN(S(=O)(=O)c2cc(NC(=O)CN3C(=O)N[C@@](C)(C4CC4)C3=O)ccc2Br)C1          6.90

---

targetOrTestSystem: Chromatin remodeling regulator CECR2 (Homo sapiens, UniProt Q9BXF3)
Sequence (Q9BXF3 whole entry, the tested form may be a part): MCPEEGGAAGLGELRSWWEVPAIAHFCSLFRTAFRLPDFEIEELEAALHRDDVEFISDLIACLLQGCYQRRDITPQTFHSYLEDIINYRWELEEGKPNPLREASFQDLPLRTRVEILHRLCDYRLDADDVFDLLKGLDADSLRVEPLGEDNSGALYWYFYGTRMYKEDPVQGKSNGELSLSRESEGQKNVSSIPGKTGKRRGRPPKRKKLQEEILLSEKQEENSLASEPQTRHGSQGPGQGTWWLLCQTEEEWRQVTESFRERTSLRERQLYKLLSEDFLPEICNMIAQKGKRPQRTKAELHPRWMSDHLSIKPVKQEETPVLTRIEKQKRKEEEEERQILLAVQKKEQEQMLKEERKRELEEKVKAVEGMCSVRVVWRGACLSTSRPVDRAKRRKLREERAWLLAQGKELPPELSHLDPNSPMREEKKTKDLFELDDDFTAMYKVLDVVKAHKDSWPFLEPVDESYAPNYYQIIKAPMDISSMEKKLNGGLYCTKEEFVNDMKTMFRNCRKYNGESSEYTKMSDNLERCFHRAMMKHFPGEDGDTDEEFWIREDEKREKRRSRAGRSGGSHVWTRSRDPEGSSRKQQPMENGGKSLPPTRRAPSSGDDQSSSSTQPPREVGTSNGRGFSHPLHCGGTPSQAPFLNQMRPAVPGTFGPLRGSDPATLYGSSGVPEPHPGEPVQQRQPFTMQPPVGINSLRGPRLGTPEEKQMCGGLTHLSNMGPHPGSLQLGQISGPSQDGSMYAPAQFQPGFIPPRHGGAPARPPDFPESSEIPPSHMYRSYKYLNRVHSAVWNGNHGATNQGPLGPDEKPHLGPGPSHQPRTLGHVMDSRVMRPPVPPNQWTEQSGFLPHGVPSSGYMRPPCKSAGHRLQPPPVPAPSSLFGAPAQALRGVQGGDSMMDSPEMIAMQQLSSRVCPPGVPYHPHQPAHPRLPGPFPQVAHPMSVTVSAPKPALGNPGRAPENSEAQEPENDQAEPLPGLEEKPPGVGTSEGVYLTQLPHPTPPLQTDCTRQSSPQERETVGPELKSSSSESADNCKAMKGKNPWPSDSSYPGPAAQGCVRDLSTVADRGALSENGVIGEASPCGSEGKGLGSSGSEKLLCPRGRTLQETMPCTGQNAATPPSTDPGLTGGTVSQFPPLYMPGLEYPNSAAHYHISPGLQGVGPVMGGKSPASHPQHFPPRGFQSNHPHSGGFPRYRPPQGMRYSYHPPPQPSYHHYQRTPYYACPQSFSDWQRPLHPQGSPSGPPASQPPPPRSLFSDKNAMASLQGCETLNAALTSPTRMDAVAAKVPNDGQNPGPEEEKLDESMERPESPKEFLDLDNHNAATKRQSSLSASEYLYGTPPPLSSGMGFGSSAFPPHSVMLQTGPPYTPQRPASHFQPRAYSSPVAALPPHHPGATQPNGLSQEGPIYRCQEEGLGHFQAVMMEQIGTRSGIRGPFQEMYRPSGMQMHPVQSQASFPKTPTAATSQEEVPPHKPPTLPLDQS
experimentalProtocol: Displacement of Alexa Fluor 647-labeled GSK tracer from FLAG-6His-Tev-fused CECR2 (424 to 543 residue) (unknown origin) measured after 15 mins by TR-FRET assay
// values below are reported IC50
endpointName: IC50 (nM)

>>> df
                                   molecule                        targetortestsystem  endpointname  readoutvalue
0  C[C@@H]1CN(S(=O)(=O)c2cc(NC(=O)CN3C(=O)NC(C)(C4CC4)C3=O)ccc2Br)C[C@H]1C (relative stereo)  Chromatin remodeling regulator CECR2 (Homo sapiens, UniProt Q9BXF3)          IC50           126
1  C[C@H]1CCN(S(=O)(=O)c2cc(NC(=O)Cn3nnc4c3CCN(CC(F)(F)F)C4)ccc2Br)C1  Chromatin remodeling regulator CECR2 (Homo sapiens, UniProt Q9BXF3)          IC50           158
2  C[C@H]1CCN(S(=O)(=O)c2cc(NC(=O)Cn3nncc3CN(C)C)ccc2Br)C1  Chromatin remodeling regulator CECR2 (Homo sapiens, UniProt Q9BXF3)          IC50          79.4
3  CC(=O)N1CCc2c(nnn2CC(=O)Nc2ccc(Br)c(S(=O)(=O)N3CC[C@H](C)C3)c2)C1  Chromatin remodeling regulator CECR2 (Homo sapiens, UniProt Q9BXF3)          IC50           100
4  COCc1cn(CC(=O)Nc2ccc(Br)c(S(=O)(=O)N3CC[C@H](C)C3)c2)nn1  Chromatin remodeling regulator CECR2 (Homo sapiens, UniProt Q9BXF3)          IC50          1580
5  C[C@H]1CCN(S(=O)(=O)c2cc(NC(=O)CN3C(=O)N[C@](C)(C4CC4)C3=O)ccc2Br)C1  Chromatin remodeling regulator CECR2 (Homo sapiens, UniProt Q9BXF3)          IC50           126
6  C[C@H]1CCN(S(=O)(=O)c2cc(NC(=O)Cn3ccnn3)ccc2Br)C1  Chromatin remodeling regulator CECR2 (Homo sapiens, UniProt Q9BXF3)          IC50          3980
7  CC(C)N1CCc2c(nnn2CC(=O)Nc2ccc(Br)c(S(=O)(=O)N3CC[C@H](C)C3)c2)C1  Chromatin remodeling regulator CECR2 (Homo sapiens, UniProt Q9BXF3)          IC50          31.6

---

targetOrTestSystem: Bromodomain-containing protein 4 (Homo sapiens, UniProt O60885, Y390A)
experimentalProtocol: Displacement of Alexa Fluor 647-labeled ligand from BRD4 BD1 Y390A mutant (1 to 477 residue) (unknown origin) measured after 30 mins by TR-FRET assay
pIC50: −log10 of the molar value.
endpointName: pIC50

>>> print(df.to_string())
                                   molecule  endpointname  boundsign  readoutvalue
0  C[C@H]1CCN(S(=O)(=O)c2cc(NC(=O)Cn3nnc4ccccc43)ccc2Br)C1         pIC50          =          4.80
1  C[C@H]1CCN(S(=O)(=O)c2cc(NC(=O)Cn3nnc4c3CCN(CC(F)(F)F)C4)ccc2Br)C1         pIC50          =          4.50
2  CN1CCc2c(nnn2CC(=O)Nc2ccc(Br)c(S(=O)(=O)N3CC[C@@H](C4CC4)C3)c2)C1         pIC50          =          4.60
3  C[C@H]1CCN(S(=O)(=O)c2cc(NC(=O)Cc3noc4ccccc34)ccc2Br)C1         pIC50          =          4.60
4  O=C(CN1C(=O)CNC1=O)Nc1ccc(Cl)c(S(=O)(=O)N2CCCCCC2)c1         pIC50          <          4.30
5  O=C(CN1C(=O)CNC1=O)Nc1ccc(Cl)c(S(=O)(=O)n2ccnc2)c1         pIC50          <          4.30
6  O=C(CN1CCCC1=O)Nc1ccc(Cl)c(S(=O)(=O)N2CCCC2)c1         pIC50          <          4.30
7  CC(C)N1CCc2c(nnn2CC(=O)Nc2ccc(Br)c(S(=O)(=O)N3CC[C@H](C)C3)c2)C1         pIC50          =          4.30
8  CC1(C2CC2)NC(=O)N(CC(=O)Nc2ccc(Cl)c(S(=O)(=O)N3CCCC3)c2)C1=O (racemic)         pIC50          <          3.30

---

targetOrTestSystem: UniProt:Q9BXF3
experimentalProtocol: Displacement of Alexa Fluor 647-labeled GSK tracer from FLAG-6His-Tev-fused CECR2 (424 to 543 residue) (unknown origin) measured after 15 mins by TR-FRET assay
// values below are reported IC50
endpointName: IC50

>>> print(df.to_string())
                            smilesstructure  readoutvalue
0  C[C@H]1CCN(S(=O)(=O)c2cc(NC(=O)Cn3nnc4c3CCN(C)C4)ccc2Br)C1       50.1 nM
1  C[C@@H]1CN(S(=O)(=O)c2cc(NC(=O)CN3C(=O)CNC3=O)ccc2Cl)C[C@@H]1C      20000 nM
2  CCN1CCc2c(nnn2CC(=O)Nc2ccc(Br)c(S(=O)(=O)N3CC[C@H](C)C3)c2)C1       50.1 nM
3  O=C(CN1C(=O)COC1=O)Nc1ccc(Cl)c(S(=O)(=O)N2CCCC2)c1       1580 nM
4  O=C(CN1C(=O)CNC1=O)Nc1ccc(Cl)c(S(=O)(=O)C2CCCCC2)c1   > 100000 nM

---

targetOrTestSystem: Chromatin remodeling regulator CECR2 (Homo sapiens, UniProt Q9BXF3)
experimentalProtocol: Displacement of Alexa Fluor 647-labeled GSK tracer from FLAG-6His-Tev-fused CECR2 (424 to 543 residue) (unknown origin) measured after 15 mins by TR-FRET assay
// values below are reported log10 IC50
endpointName: log10 IC50 (log10 of the value in µM)

>>> df
                                   compound                        targetortestsystem  readoutvalue
0  CC1(C2CC2)NC(=O)N(CC(=O)Nc2ccc(Cl)c(S(=O)(=O)N3CCCC3)c2)C1=O (racemic)  Chromatin remodeling regulator CECR2 (Homo sapiens, UniProt Q9BXF3)          0.20
1  O=C(CN1CCCC1=O)Nc1ccc(Cl)c(S(=O)(=O)N2CCCC2)c1  Chromatin remodeling regulator CECR2 (Homo sapiens, UniProt Q9BXF3)          1.30
2  CCC1CCN(S(=O)(=O)c2cc(NC(=O)CN3C(=O)CNC3=O)ccc2Cl)C1 (racemic)  Chromatin remodeling regulator CECR2 (Homo sapiens, UniProt Q9BXF3)          0.10
3  O=C(CN1C(=O)CNC1=O)Nc1ccc(Cl)c(S(=O)(=O)N2CCC3(CC3)C2)c1  Chromatin remodeling regulator CECR2 (Homo sapiens, UniProt Q9BXF3)          0.60
4     CC(=O)Nc1ccc(Cl)c(S(=O)(=O)N2CCCC2)c1  Chromatin remodeling regulator CECR2 (Homo sapiens, UniProt Q9BXF3)          1.90
